MEASURED TARGET: Metabotropic glutamate receptor 5 (Rattus norvegicus)
ASSAY METHOD TEXT: Negative allosteric modulator activity at rat mGlu5 expressed in HEK293A cells assessed as reduction in glutamate-induced calcium mobilization
pIC50: −log10 of the molar value.
RESULT TYPE: pIC50

COc1cc(OC)cc(C(=O)Nc2cncc(Oc3cncc(F)c3)n2)c1	< 4.52
O=C(Nc1cncc(Oc2cncc(F)c2)n1)c1ccc(F)c(Cl)c1	5.34
O=C(Nc1cncc(Oc2cncnc2)n1)c1cccs1	< 5.00
O=C(Nc1cncc(Oc2cncc(F)c2)n1)c1nccs1	< 5.00
N#Cc1cccc(C(=O)Nc2cncc(Oc3cncc(F)c3)n2)c1	6.18

Exercise: Need pIC50 of `CN(C)c1cccc(C(=O)Nc2cncc(Oc3cncc(F)c3)n2)c1` , thanks.
Solution: < 5.00

Exercise: Need pIC50 of `O=C(Nc1cncc(Oc2cncc(F)c2)n1)c1cc(F)cc(Cl)c1` , thanks.
Solution: < 5.00

Exercise: Need pIC50 of `O=C(Nc1cncc(Oc2cncc(F)c2)n1)c1cscn1` , thanks.
Solution: 5.07

Exercise: Need pIC50 of `O=C(Nc1cncc(Oc2cncc(F)c2)n1)c1cncs1` , thanks.
Solution: < 4.52

* * *

ASSAY METHOD TEXT: Tmax in Sprague-Dawley rat at 10 mg/kg, po administered as single dose after 15 to 1440 mins by LC-MS/MS method
Assay type: ADME, organism-based
Design: dose 10 mg/kg, route oral
SETUP CONDITIONS: in vivo
RESULT TYPE: Tmax

Exercise: Need Tmax of `O=C(Nc1cncc(Oc2cncnc2)n1)c1cc(Cl)ccn1` , thanks.
Solution: 4 h

* * *

ASSAY METHOD TEXT: Apparent permeability from basolateral to apical side in human Caco2 cells
Format: ADME, cell-based
SETUP CONDITIONS: caco-2
RESULT TYPE: Papp (×10⁻⁶ cm/s)
Value expressed in ×10⁻⁶ cm/s; do not type the unit.

Exercise: Need Papp of `O=C(Nc1cncc(Oc2cncnc2)n1)c1cc(Cl)ccn1` , thanks.
Solution: 71.4

* * *

ASSAY METHOD TEXT: Drug level in Harlan CD1 mouse brain at 30 mg/kg, ip after 15 mins
Format: ADME, organism-based
Design: dose 30 mg/kg, route intraperitoneal
SETUP CONDITIONS: read-out: Drug uptake
RESULT TYPE: concentration at 0.25 h (µM)
Value expressed in µM; do not type the unit.

Exercise: Need concentration at 0.25 h of `O=C(Nc1cncc(Oc2cncnc2)n1)c1cc(Cl)ccn1` , thanks.
Solution: 6.21

* * *

ASSAY METHOD TEXT: Drug level in Sprague-Dawley rat brain at 10 mg/kg, po administered as single dose after 60 mins by LC-MS/MS method
Assay type: ADME, organism-based
Set-up: dose 10 mg/kg, route oral
SETUP CONDITIONS: read-out: Drug uptake
RESULT TYPE: concentration at 1 h (nM)
Value expressed in nM; do not type the unit.

Exercise: Need concentration at 1 h of `O=C(Nc1cncc(Oc2cncnc2)n1)c1cc(Cl)ccn1` , thanks.
Solution: 1450

* * *

MEASURED TARGET: Metabotropic glutamate receptor 5 (Rattus norvegicus, UniProt P31424)
Sequence (P31424 whole entry): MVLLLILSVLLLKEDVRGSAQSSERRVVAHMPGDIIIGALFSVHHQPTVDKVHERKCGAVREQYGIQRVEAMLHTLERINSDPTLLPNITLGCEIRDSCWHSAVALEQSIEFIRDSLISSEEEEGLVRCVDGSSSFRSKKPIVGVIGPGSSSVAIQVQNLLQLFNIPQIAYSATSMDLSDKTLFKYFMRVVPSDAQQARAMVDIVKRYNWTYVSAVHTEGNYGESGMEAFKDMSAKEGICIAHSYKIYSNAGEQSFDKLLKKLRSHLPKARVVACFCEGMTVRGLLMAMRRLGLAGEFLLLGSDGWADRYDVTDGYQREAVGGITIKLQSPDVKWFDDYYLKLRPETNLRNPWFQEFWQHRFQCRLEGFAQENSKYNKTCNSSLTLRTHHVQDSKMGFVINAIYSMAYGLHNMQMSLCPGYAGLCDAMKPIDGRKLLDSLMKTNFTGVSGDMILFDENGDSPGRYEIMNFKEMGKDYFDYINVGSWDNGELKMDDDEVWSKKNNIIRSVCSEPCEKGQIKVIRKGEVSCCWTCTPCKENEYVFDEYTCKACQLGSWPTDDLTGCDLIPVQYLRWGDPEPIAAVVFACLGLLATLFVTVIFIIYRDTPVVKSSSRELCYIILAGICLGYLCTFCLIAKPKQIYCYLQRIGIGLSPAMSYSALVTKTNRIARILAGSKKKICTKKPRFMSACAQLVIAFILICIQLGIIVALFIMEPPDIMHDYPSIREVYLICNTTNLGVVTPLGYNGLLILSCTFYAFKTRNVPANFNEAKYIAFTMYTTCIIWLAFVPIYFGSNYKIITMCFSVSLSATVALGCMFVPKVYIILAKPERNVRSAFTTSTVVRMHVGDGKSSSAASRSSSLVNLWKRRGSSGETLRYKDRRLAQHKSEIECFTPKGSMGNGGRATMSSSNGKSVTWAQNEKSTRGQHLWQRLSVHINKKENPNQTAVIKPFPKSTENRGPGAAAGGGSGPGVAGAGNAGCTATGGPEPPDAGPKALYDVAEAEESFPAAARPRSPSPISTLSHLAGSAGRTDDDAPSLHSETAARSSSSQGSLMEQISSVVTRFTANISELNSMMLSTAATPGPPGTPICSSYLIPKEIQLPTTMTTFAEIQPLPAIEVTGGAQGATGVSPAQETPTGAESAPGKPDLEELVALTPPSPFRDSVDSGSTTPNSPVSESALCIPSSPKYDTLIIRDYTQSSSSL
ASSAY METHOD TEXT: Negative allosteric modulator activity at rat mGlu5 expressed in HEK293A cells assessed as reduction in glutamate-induced calcium mobilization
RESULT TYPE: pIC50
Note: pIC50 values are expressed as the negative base-10 logarithm of concentration in M.

Exercise: Need pIC50 of `O=C(Nc1cncc(Oc2cncnc2)n1)c1cc(Cl)ccn1` , thanks.
Solution: 7.20

Exercise: Need pIC50 of `O=C(Nc1cncc(Oc2cncc(F)c2)n1)c1cc(Cl)ccn1` , thanks.
Solution: 6.95

Exercise: Need pIC50 of `Cc1ccnc(C(=O)Nc2cncc(Oc3cncc(F)c3)n2)c1` , thanks.
Solution: 6.51

Exercise: Need pIC50 of `O=C(Nc1cncc(Oc2cncnc2)n1)c1cccc(F)c1` , thanks.
Solution: 5.29

Exercise: Need pIC50 of `O=C(Nc1ccnc(Oc2cccnc2)c1)c1cccc(Cl)c1` , thanks.
Solution: 5.43

* * *

ASSAY METHOD TEXT: Volume of distribution at steady state in Sprague-Dawley rat at 1 mg/kg, iv after 2 to 1440 mins by LC-MS/MS method
Format: ADME, organism-based
Design: dose 1 mg/kg, route intravenous
SETUP CONDITIONS: in vivo, read-out: Vdss
RESULT TYPE: Vd (L/kg)
Value expressed in L/kg; do not type the unit.

Exercise: Need Vd of `O=C(Nc1cncc(Oc2cncnc2)n1)c1cc(Cl)ccn1` , thanks.
Solution: 2.7

* * *

ASSAY METHOD TEXT: AUC in Sprague-Dawley rat at 1 mg/kg, iv after 2 to 1440 mins by LC-MS/MS method
Assay type: ADME, organism-based
Set-up: dose 1 mg/kg, route intravenous
SETUP CONDITIONS: plasma
RESULT TYPE: AUC (µM·h)
Value expressed in µM·h; do not type the unit.

Exercise: Need AUC of `O=C(Nc1cncc(Oc2cncnc2)n1)c1cc(Cl)ccn1` , thanks.
Solution: 1.73

* * *

MEASURED TARGET: Metabotropic glutamate receptor 5 (Rattus norvegicus)
RESULT TYPE: pKi
Note: pKi values are expressed as the negative base-10 logarithm of concentration in M.

Exercise: What is its pKi for Metabotropic glutamate receptor 5 (Rattus norvegicus)? Entry: `O=C(Nc1cncc(Oc2cncnc2)n1)c1cc(Cl)ccn1`
Solution: 7.43

* * *

ASSAY METHOD TEXT: Plasma concentration in Harlan CD1 mouse at 30 mg/kg, ip after 30 mins
Type: ADME, organism-based
Parameters: dose 30 mg/kg, route intraperitoneal
RESULT TYPE: concentration at 0.5 h (nM)
Value expressed in nM; do not type the unit.

Exercise: Need concentration at 0.5 h of `O=C(Nc1cncc(Oc2cncnc2)n1)c1cc(Cl)ccn1` , thanks.
Solution: 3000

* * *

MEASURED TARGET: Metabotropic glutamate receptor 5 (Homo sapiens, UniProt P41594)
Sequence (P41594 whole entry): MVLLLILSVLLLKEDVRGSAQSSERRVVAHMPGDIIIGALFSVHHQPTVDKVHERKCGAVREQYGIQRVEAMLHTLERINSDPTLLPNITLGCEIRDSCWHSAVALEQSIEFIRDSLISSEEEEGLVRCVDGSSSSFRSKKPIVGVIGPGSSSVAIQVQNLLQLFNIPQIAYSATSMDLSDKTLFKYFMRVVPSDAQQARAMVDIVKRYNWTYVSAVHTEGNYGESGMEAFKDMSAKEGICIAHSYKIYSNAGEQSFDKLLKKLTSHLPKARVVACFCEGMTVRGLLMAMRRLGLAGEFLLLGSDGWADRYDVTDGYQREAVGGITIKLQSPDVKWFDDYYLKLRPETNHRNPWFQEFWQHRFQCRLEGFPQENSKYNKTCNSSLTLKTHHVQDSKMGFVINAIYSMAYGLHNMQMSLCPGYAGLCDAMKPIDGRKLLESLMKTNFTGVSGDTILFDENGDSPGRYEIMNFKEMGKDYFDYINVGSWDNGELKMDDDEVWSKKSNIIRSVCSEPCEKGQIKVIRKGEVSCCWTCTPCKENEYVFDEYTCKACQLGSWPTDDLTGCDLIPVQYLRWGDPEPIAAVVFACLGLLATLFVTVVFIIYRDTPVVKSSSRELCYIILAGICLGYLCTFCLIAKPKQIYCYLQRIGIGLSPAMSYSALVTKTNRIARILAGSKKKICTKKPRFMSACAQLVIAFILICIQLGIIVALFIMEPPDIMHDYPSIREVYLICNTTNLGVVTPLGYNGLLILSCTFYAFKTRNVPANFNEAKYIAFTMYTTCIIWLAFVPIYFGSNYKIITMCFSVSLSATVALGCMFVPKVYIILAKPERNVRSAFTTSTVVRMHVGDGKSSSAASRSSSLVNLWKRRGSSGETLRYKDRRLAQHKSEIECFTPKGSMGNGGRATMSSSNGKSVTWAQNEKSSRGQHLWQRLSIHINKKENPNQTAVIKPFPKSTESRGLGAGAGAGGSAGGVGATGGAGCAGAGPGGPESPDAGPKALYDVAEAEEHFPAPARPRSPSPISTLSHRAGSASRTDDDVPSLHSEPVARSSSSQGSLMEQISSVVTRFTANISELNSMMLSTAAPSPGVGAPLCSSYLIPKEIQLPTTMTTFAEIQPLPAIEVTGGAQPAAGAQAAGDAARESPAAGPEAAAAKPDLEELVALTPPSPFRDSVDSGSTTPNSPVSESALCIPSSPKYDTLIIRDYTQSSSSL
ASSAY METHOD TEXT: Negative allosteric modulator activity at human mGlu5 assessed as reduction in glutamate-induced calcium mobilization
RESULT TYPE: pIC50
Note: pIC50 values are expressed as the negative base-10 logarithm of concentration in M.

Exercise: What is its pIC50 for Metabotropic glutamate receptor 5 (Homo sapiens, UniProt P41594)? Entry: `O=C(Nc1cncc(Oc2cncnc2)n1)c1cc(Cl)ccn1`
Solution: 7.07

* * *

ASSAY METHOD TEXT: Plasma concentration in Harlan CD1 mouse at 30 mg/kg, ip after 60 mins
Format: ADME, organism-based
Set-up: dose 30 mg/kg, route intraperitoneal
RESULT TYPE: concentration at 1 h (nM)
Value expressed in nM; do not type the unit.

Exercise: Need concentration at 1 h of `O=C(Nc1cncc(Oc2cncnc2)n1)c1cc(Cl)ccn1` , thanks.
Solution: 1690

* * *

ASSAY METHOD TEXT: Cmax in Sprague-Dawley rat at 10 mg/kg, po administered as single dose after 15 to 1440 mins by LC-MS/MS method
Format: ADME, organism-based
Set-up: dose 10 mg/kg, route oral
SETUP CONDITIONS: in vivo
RESULT TYPE: Cmax (nM)
Value expressed in nM; do not type the unit.

Exercise: Need Cmax of `O=C(Nc1cncc(Oc2cncnc2)n1)c1cc(Cl)ccn1` , thanks.
Solution: 1120

* * *

ASSAY METHOD TEXT: Ratio of drug level in brain to plasma in Sprague-Dawley rat at 10 mg/kg, po administered as single dose after 60 mins by LC-MS/MS method
Format: ADME, organism-based
Set-up: dose 10 mg/kg, route oral
SETUP CONDITIONS: read-out: BPR
RESULT TYPE: Kp at 1 h

Exercise: Need Kp at 1 h of `O=C(Nc1cncc(Oc2cncnc2)n1)c1cc(Cl)ccn1` , thanks.
Solution: 1.6

* * *

ASSAY METHOD TEXT: Drug level in Sprague-Dawley rat hepatic portal vein at 10 mg/kg, po administered as single dose after 60 mins by LC-MS/MS method
Assay type: ADME, organism-based
Design: dose 10 mg/kg, route oral
SETUP CONDITIONS: read-out: Drug uptake
RESULT TYPE: concentration at 1 h
Hey, just the number and the unit after it is fine.

Exercise: Need concentration at 1 h of `O=C(Nc1cncc(Oc2cncnc2)n1)c1cc(Cl)ccn1` , thanks.
Solution: 1310 nM

* * *

The reader will find reported pIC50 values listed item by item below.
MEASURED TARGET: Metabotropic glutamate receptor 5 (Rattus norvegicus, UniProt P31424)
ASSAY METHOD TEXT: Negative allosteric modulator activity at rat mGlu5 expressed in HEK293A cells assessed as reduction in glutamate-induced calcium mobilization
Note: pIC50 values are expressed as the negative base-10 logarithm of concentration in M.

Cc1cccc(C(=O)Nc2cncc(Oc3cncc(F)c3)n2)c1	6.70

The record that follows has no pIC50 shown yet.
Exercise: Need pIC50 of `O=C(Nc1cncc(Oc2cncc(F)c2)n1)c1cccc(Cl)c1` , thanks.
Solution: 6.93
